# tested_on: Human immunodeficiency virus type 1 protease (Human immunodeficiency virus 1, UniProt Q72874)
measured_property: IC50 (µM)
Numbers only, in µM.

| compound_structure | reported_value |
| --- | --- |
| CC(C)c1ccccc1Sc1c(O)cc(-c2ccc(O)cc2)oc1=O | 0.054 |
| CC(C)c1ccccc1Sc1c(O)cc(-c2ccc(C(N)=O)cc2)oc1=O | 0.135 |
| CC(C)c1ccccc1Sc1c(O)cc(-c2ccc(O)c(C(=O)O)c2)oc1=O | 0.292 |

Here are 7 compounds. What values of IC50 were reported for them?
1. COC(=O)c1cccc(-c2cc(O)c(Sc3ccccc3C(C)C)c(=O)o2)c1
2. CC(C)c1ccccc1Sc1c(O)cc(-c2cccc(O)c2)oc1=O
3. CC(C)c1ccccc1Sc1c(O)cc(-c2cccc(C(=O)O)c2)oc1=O
4. Cc1cc(C)cc(-c2cc(O)c(Sc3ccccc3C(C)C)c(=O)o2)c1
5. CC(C)c1ccccc1Sc1c(O)cc(-c2ccc([N+](=O)[O-])cc2)oc1=O
6. CC(C)c1ccccc1Sc1c(O)cc(-c2ccc(Cl)c(Cl)c2)oc1=O
7. CC(C)c1ccccc1Sc1c(O)cc(-c2ccccc2Cl)oc1=O

A:
[0.08, 0.089, 0.151, 0.015, 0.191, 0.022, 0.225]

====

# tested_on: Human immunodeficiency virus type 1 protease (Human immunodeficiency virus 1, UniProt Q72874)
pIC50: −log10 of the molar value.
# binarize pIC50: threshold 7 inclusive, high side 1.0, low side 0.0

| compound_structure | label_class |
| --- | --- |
| CCOC(=O)c1ccc(-c2cc(O)c(Sc3ccccc3C(C)C)c(=O)o2)cc1 | 1.0 |
| Cc1ccc(-c2cc(O)c(Sc3ccccc3C(C)C)c(=O)o2)cc1 | 1.0 |
| CC(C)c1ccccc1Sc1c(O)cc(-c2ccc(C#N)cc2)oc1=O | 0.0 |

Q: Textbook exercise: given the entry Cc1ccccc1-c1cc(O)c(Sc2ccccc2C(C)C)c(=O)o1 , state whether its pIC50 is greater than or equal to 7.
A: 0.0

Q: Moving on to CC(C)c1ccccc1Sc1c(O)cc(-c2cc(Cl)cc(Cl)c2)oc1=O
A: 1.0

Q: Moving on to CCc1cccc(-c2cc(O)c(Sc3ccccc3C(C)C)c(=O)o2)c1
A: 0.0

Q: Moving on to COc1ccccc1-c1cc(O)c(Sc2ccccc2C(C)C)c(=O)o1
A: 0.0

====

# tested_on: Human immunodeficiency virus type 1 protease (Human immunodeficiency virus 1, UniProt Q72874)
measured_property: pIC50
One number for each entry, as −log10 of the molar value.

A selection of reference data follows.
| compound_structure | measured_property | reported_value |
| --- | --- | --- |
| CCOC(=O)c1cc(-c2cc(O)c(Sc3ccccc3C(C)C)c(=O)o2)ccc1O | pIC50 | 6.83 |
| CC(C)(C)NC(=O)[C@@H]1CCCCN1C[C@@H](O)[C@H](Cc1ccccc1)NC(=O)[C@H](CC(N)=O)NC(=O)c1ccc2ccccc2n1 | pIC50 | 8.00 |
| CC(C)c1ccccc1Sc1c(O)cc(-c2cccc(-c3ccccc3)c2)oc1=O | pIC50 | 7.42 |
| CC(C)c1ccccc1Sc1c(O)cc(-c2cccc(C(F)(F)F)c2)oc1=O | pIC50 | 7.12 |
| CCOC(=O)c1cccc(-c2cc(O)c(Sc3ccccc3C(C)C)c(=O)o2)c1 | pIC50 | 5.71 |

Here are 5 compounds. What values of pIC50 were reported for them?
1. CC(C)c1ccccc1Sc1c(O)cc(-c2cccc(Cl)c2)oc1=O
2. CC(C)c1ccccc1Sc1c(O)cc(-c2ccc(C(=O)O)cc2)oc1=O
3. Cc1cccc(-c2cc(O)c(Sc3ccccc3C(C)C)c(=O)o2)c1
4. CC(C)c1ccccc1Sc1c(O)cc(-c2ccc(F)cc2)oc1=O
5. COC(=O)c1cc(-c2cc(O)c(Sc3ccccc3C(C)C)c(=O)o2)ccc1O

A:
7.64
7.17
7.85
6.91
7.21
